# tested.on: Phosphatidylinositol 5-phosphate 4-kinase type-2 gamma (Homo sapiens, UniProt Q8TBX8)
# Sequence (Q8TBX8 whole entry): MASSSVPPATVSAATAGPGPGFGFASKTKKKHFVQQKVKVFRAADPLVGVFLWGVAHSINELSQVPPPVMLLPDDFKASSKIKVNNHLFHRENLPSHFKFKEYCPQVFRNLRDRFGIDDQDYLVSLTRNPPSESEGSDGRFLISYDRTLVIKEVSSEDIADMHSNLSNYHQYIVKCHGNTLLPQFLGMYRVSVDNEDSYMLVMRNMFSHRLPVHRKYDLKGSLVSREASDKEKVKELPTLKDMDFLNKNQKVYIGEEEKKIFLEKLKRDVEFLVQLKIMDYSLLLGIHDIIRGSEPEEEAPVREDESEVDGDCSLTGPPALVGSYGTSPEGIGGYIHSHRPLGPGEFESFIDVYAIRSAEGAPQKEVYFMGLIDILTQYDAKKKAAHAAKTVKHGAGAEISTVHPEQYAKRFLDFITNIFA
Activity calls are given as the source filed them.
// allowed return values: active, inactive

Req: // param item: CC(C)(O)CC(=O)NCCn1ccc2ncnc(Nc3ccc(Oc4cccc(C(F)(F)F)c4)c(Cl)c3)c21 ; yields the recorded call
Resp: inactive

Req: // param item: N#CCNC(=O)c1ccc(-c2ccnc(Nc3ccc(N4CCOCC4)cc3)n2)cc1 ; yields the recorded call
Resp: inactive

Req: // param item: CC(C)CC(=O)Nc1[nH]nc2c1CN(C(=O)C1CCN(C)CC1)C2(C)C ; yields the recorded call
Resp: inactive

Req: // param item: S=C(NCc1ccc2c(c1)OCO2)N1CCN(c2ncnc3c2oc2ccccc23)CC1 ; yields the recorded call
Resp: inactive

Req: // param item: CC[C@@](C)(Nc1ccnc(-c2c[nH]c3ncccc23)n1)C(=O)NCC(F)(F)F ; yields the recorded call
Resp: inactive

Req: // param item: COc1cc2ncnc(Nc3ccc(O)cc3)c2cc1OC ; yields the recorded call
Resp: inactive

Req: // param item: C#Cc1cccc(Nc2ncnc3cc4c(cc23)OCCOCCOCCO4)c1 ; yields the recorded call
Resp: active

Req: // param item: COc1cc(F)c(F)c(Nc2ccc(I)cc2F)c1NS(=O)(=O)C1(C[C@H](O)CO)CC1 ; yields the recorded call
Resp: inactive

Req: // param item: CCN1CCN(Cc2ccc(Nc3ncc(F)c(-c4cc(F)c5nc(C)n(C(C)C)c5c4)n3)nc2)CC1 ; yields the recorded call
Resp: inactive

Req: // param item: COc1ccc(-c2ccc3ncc4c(c3c2)n(-c2ccc(N3CCNCC3)c(C(F)(F)F)c2)c(=O)n4C)cn1 [BGT-226 FREE BASE] ; yields the recorded call
Resp: active

Req: // param item: CCN(CCCOc1ccc2c(Nc3cc(CC(=O)Nc4cccc(F)c4)n[nH]3)ncnc2c1)CCOP(=O)(O)O ; yields the recorded call
Resp: inactive

Req: // param item: CNC(=O)c1cc(COc2nnc(Nc3ccc(Cl)cc3)c3ccoc23)ccn1 ; yields the recorded call
Resp: inactive

Req: // param item: Cc1c(Cn2c(C)nc3c(C(=O)O)cc(N4CCOCC4)cc32)cccc1C(F)(F)F ; yields the recorded call
Resp: inactive

====

# tested.on: Proto-oncogene tyrosine-protein kinase receptor Ret (Homo sapiens, UniProt P07949)
# Sequence (P07949 whole entry): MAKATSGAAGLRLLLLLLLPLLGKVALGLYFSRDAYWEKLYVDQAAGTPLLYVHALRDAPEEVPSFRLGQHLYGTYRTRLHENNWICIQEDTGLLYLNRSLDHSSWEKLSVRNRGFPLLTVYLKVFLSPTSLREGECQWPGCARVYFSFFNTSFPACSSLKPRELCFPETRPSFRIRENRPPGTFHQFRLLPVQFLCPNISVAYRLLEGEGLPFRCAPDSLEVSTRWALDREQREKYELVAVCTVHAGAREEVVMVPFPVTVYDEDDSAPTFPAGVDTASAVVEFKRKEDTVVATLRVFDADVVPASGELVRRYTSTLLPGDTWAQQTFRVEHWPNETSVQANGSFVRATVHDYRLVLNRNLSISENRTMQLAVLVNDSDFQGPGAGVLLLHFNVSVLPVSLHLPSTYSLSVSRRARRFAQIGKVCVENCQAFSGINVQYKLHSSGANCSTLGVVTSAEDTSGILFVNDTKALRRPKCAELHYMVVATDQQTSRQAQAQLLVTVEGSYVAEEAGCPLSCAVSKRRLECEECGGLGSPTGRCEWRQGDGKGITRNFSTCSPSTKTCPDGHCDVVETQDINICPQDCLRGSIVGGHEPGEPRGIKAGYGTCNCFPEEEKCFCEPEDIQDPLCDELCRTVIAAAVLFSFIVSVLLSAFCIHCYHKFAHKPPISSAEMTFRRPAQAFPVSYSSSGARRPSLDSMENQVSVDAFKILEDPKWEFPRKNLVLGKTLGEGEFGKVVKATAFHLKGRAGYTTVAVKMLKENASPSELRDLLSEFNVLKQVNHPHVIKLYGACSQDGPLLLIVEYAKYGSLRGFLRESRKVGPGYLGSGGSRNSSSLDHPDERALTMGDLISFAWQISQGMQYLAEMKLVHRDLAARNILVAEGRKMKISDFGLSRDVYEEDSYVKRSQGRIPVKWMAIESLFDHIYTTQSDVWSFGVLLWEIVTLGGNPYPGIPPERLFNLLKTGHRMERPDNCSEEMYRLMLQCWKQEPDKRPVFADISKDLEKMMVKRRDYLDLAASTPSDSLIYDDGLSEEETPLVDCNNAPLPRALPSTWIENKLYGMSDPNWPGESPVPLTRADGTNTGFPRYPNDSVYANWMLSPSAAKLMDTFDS
Activity calls are given as the source filed them.
// allowed return values: Yes = active, No = inactive

Req: // param item: COCCN1CCN(Cc2ccc(-c3n[nH]c4c3C(=O)c3c(NC(=O)NN5CCOCC5)cccc3-4)cc2)CC1 [RGB-286638] ; yields the recorded call
Resp: No

Req: // param item: CC1(COc2ccc3c(c2)ncn3-c2ccc3cccc(N4CCC(N)CC4)c3n2)COC1 [CRENOLANIB] ; yields the recorded call
Resp: Yes

Req: // param item: C=CCN(/C=C1/C(=O)O[C@H](COC)[C@@]2(C)C1=C(O)C(=O)C1=C2[C@H](OC(C)=O)C[C@]2(C)C(=O)CC[C@@H]12)CC=C [SONOLISIB] ; yields the recorded call
Resp: No

Req: // param item: O=C(O)c1ccc2c(c1)nc(Nc1cccc(Cl)c1)c1ccncc12 [SILMITASERTIB] ; yields the recorded call
Resp: No

Req: // param item: c1cc(OCCN2CCCCC2)cc(-c2n[nH]c3ccc(-c4nc[nH]n4)cc23)c1 [CC-401] ; yields the recorded call
Resp: No

Req: // param item: CNC(=O)c1cccc(-c2ccc3c(N4CCOC[C@@H]4C)nc(N4CCOC[C@@H]4C)nc3n2)c1 [VISTUSERTIB] ; yields the recorded call
Resp: No

Req: // param item: CN1CCN(c2nc(C3=C(c4c[nH]c5ccccc45)C(=O)NC3=O)c3ccccc3n2)CC1 [SOTRASTAURIN] ; yields the recorded call
Resp: No

Req: // param item: CCc1nc(C(N)=O)c(Nc2ccc(N3CCC(N4CCN(C)CC4)CC3)c(OC)c2)nc1NC1CCOCC1 [GILTERITINIB] ; yields the recorded call
Resp: Yes

Req: // param item: Cc1ccc(C(=O)Nc2ccc(Oc3cc4cnn(C)c4cc3-c3cn[nH]c3)c(F)c2)c(=O)n1-c1ccc(F)cc1 [MERESTINIB] ; yields the recorded call
Resp: Yes

Req: // param item: O=c1[nH]c([C@@H]2CCCN2)nc2c1oc1ccc(Cl)cc12 ; yields the recorded call
Resp: No

Req: // param item: COc1cc2ncnc(Nc3ccc(O)cc3)c2cc1OC [WHI-P131] ; yields the recorded call
Resp: Yes

Req: // param item: O=C(NC[C@H](O)CO)c1ccncc1Nc1ccc(I)cc1F [PIMASERTIB] ; yields the recorded call
Resp: No

Req: // param item: C[C@@H]1COC(Nc2ccc3ncnc(Nc4ccc(OCc5nccs5)c(Cl)c4)c3c2)=N1 [VARLITINIB] ; yields the recorded call
Resp: No

Req: // param item: NC[C@@](O)(c1ccc(Cl)cc1)c1ccc(-c2cn[nH]c2)cc1 [AT-13148] ; yields the recorded call
Resp: No

Req: // param item: Cc1c(Cn2c(C)nc3c(C(=O)O)cc(N4CCOCC4)cc32)cccc1C(F)(F)F [GSK-2636771] ; yields the recorded call
Resp: No

Req: // param item: C#Cc1cccc(Nc2ncnc3cc4c(cc23)OCCOCCOCCO4)c1 [ICOTINIB] ; yields the recorded call
Resp: No
